# ASSAYED_SYSTEM: h5-HT1A (Homo sapiens)
# Sequence (P08908 whole entry): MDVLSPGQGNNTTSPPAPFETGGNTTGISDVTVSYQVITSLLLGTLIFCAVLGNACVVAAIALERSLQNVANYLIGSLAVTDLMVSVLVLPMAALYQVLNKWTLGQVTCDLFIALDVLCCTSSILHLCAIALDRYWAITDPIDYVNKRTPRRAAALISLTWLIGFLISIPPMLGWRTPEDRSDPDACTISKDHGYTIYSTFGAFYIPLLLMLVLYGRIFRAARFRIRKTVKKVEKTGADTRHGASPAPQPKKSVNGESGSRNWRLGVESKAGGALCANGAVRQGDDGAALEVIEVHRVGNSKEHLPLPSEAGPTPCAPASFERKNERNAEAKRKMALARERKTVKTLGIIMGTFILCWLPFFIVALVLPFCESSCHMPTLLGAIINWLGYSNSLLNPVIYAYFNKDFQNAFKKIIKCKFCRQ
# RUN_DESCRIPTION: biochemical
# Format: binding
REPORTED_ENDPOINT: pKi
Convention used: pKi is expressed as -log10 of the molar concentration.

## Task Reported pKi for CCn1c2ccccc2c2cc(CNCCCCNC(=O)c3ccc(-c4cccnc4)cc3)ccc21 [23j] : what is it?
## Result 6.24

====

# RUN_DESCRIPTION: Pharmacokinetics study in ICR mice
# Format: in vivo, mouse
# CONDITIONS: ICR, mouse, plasma, po, 10 mg/kg
REPORTED_ENDPOINT: Tmax (min)
Report the figure in min without appending any unit label.

## Task Reported Tmax for CCn1c2ccccc2c2cc(CNCCCCNC(=O)c3ccc(-c4cccnc4)cc3)ccc21 [23j] : what is it?
## Result 10.2

====

# RUN_DESCRIPTION: BBB penetration study in ICR mice
# Type: in vivo, mouse
# CONDITIONS: ICR, mouse, plasma, po, 10 mg/kg, Plasma concentration at 0.5 h, 10 mg/kg p.o.
REPORTED_ENDPOINT: concentration at 0.5 h (ng/mL)
Report the figure in ng/mL without appending any unit label.

## Task Reported concentration at 0.5 h for CCn1c2ccccc2c2cc(CNCCCCNC(=O)c3ccc(-c4cccnc4)cc3)ccc21 [23j] : what is it?
## Result 53.4

====

# RUN_DESCRIPTION: BBB penetration study in ICR mice
# Format: in vivo, mouse
# CONDITIONS: ICR, mouse, plasma, iv, 3 mg/kg, Plasma concentration at 0.5 h, 3 mg/kg i.v.
REPORTED_ENDPOINT: concentration at 0.5 h (ng/mL)
Report the figure in ng/mL without appending any unit label.

## Task Reported concentration at 0.5 h for CCn1c2ccccc2c2cc(CNCCCCNC(=O)c3ccc(-c4cccnc4)cc3)ccc21 [23j] : what is it?
## Result 180

====

Catalogue of inhibition at 10 µM readings, one per entry.
# ASSAYED_SYSTEM: hD3R (Homo sapiens, UniProt P35462)
# Sequence (P35462 whole entry): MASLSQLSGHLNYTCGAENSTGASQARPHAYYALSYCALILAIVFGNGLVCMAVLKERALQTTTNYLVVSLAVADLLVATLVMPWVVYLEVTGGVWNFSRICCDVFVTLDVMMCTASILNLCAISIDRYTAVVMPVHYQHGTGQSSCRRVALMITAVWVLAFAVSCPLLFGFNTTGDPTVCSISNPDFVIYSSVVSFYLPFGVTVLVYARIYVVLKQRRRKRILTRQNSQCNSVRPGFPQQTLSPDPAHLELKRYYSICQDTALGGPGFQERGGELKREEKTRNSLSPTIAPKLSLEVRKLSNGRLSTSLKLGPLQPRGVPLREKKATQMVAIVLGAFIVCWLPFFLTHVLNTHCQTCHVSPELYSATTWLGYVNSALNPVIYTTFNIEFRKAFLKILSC
# RUN_DESCRIPTION: biochemical
# Format: binding
# CONDITIONS: read-out: % inhibition at 10 μmol/L hD3, 10 μmol/L test compound
Put your answer as a value accompanied by its unit after it.

Before answering, review these 5 worked examples.
## Task Form: Entry = CCn1c2ccccc2c2cc(CNCCCCNC(=O)c3ccc4[nH]c(=O)oc4c3)ccc21 [23f] | System = hD3R (Homo sapiens, UniProt P35462) | inhibition at 10 µM = ____
## Result 97.6%

## Task Now try Cn1c2c(c3ccccc31)CCN(CCCCNC(=O)c1cc3ccccc3[nH]1)C2 [42a] .
## Result 106%

## Task Now try CCCN(CCCCNC(=O)c1cc2ccccc2[nH]1)Cc1ccc2c(c1)c1ccccc1n2CC [31c] .
## Result 98.6%

## Task Now try CCn1c2ccccc2c2cc(CNCCCCNC(=O)c3ccc(-c4ccc(C(C)=O)cc4)cc3)ccc21 [23h] .
## Result 105%

## Task Now try CCn1c2c(c3ccccc31)CCN(CCCCNC(=O)c1cc3ccccc3[nH]1)C2 [42b] .
## Result 106%

Next:
## Task Form: Entry = Cn1c2c(c3ccccc31)CCN(CCCCNC(=O)c1ccc3[nH]c(=O)[nH]c3c1)C2 [42i] | System = hD3R (Homo sapiens, UniProt P35462) | inhibition at 10 µM = ____
## Result 85.2%

## Task Now try CCn1c2ccccc2c2cc(CNCCCCn3ccnc3)ccc21 [17a] .
## Result 75.6%

## Task Now try CCn1c2ccccc2c2cc(CNCCCCNC(=O)c3ccc(-c4cccnc4)cc3)ccc21 [23j] .
## Result 107%

## Task Now try CCn1c2ccccc2c2cc(CNCCCCNC(=O)c3nc4ccccc4[nH]3)ccc21 [23b] .
## Result 86.7%
